# Tested on: Escherichia coli TOP10
# METHOD_NOTES: shrunken log2 fold change of peptide-encoding DNA abundance (4.5 h post-induction vs induction); higher = less antimicrobial activity (less host growth inhibition)
# TEST_CONDITIONS: time post-induction: 4.5 h; library: site-saturation at positions 5, 18, 19, 20
Items are presented alongside their recorded shrunken log2 fold change.
// return just the number, without any unit appended

Challenge: Lab request: please report shrunken log2 fold change under test system Escherichia coli TOP10 for RRIRYRPPRLPRPRPRPWKEPRP;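 note: peptides expressed intracellularly from a pBAD plasmid library in pooled LB shake-flask culture, induced with 0.3% L-arabinose, DNA abundance read by NGS, three biological replicates, DESeq2 with apeglm shrinkage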
Response given: -0.0075

Challenge: Would you kindly repeat that for RRIRYRPPRLPRPRPRPIYIPRP ?
Response given: -0.673

Challenge: Would you kindly repeat that for RRIRYRPPRLPRPRPRPMKRPRP ?
Response given: -0.0321
